Hey, just so you know, these numbers are from the supplement of paper PMC10065799.

# Assayed system: Fes (UniProt P07332)
# Sequence (P07332 whole entry, looked up): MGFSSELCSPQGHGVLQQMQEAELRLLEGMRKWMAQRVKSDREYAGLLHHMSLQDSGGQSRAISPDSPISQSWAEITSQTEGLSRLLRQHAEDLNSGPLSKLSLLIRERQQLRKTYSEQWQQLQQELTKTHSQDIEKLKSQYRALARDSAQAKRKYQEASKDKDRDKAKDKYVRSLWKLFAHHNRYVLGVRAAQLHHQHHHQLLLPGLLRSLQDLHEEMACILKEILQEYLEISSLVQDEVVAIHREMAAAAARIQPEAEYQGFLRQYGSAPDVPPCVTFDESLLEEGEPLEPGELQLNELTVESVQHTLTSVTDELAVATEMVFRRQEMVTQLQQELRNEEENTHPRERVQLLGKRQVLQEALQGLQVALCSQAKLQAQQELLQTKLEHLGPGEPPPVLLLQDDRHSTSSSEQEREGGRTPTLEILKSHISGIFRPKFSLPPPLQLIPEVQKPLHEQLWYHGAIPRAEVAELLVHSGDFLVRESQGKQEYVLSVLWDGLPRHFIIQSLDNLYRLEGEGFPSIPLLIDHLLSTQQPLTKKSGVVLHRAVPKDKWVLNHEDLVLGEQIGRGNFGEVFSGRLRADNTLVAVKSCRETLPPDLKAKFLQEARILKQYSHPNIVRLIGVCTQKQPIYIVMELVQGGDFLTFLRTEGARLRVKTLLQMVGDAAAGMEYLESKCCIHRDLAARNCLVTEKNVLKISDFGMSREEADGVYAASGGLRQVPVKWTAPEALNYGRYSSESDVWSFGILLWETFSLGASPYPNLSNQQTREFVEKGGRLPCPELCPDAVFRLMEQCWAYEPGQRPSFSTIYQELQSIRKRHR
# Assay text: phosphorylation enrichment, bacterial display (enrichment ratio); higher = better substrate or ligand; peptides without Tyr show the background;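 also: 11-residue human phosphosite peptides and single-mutation variants displayed on the E. coli surface, counted by deep sequencing, each peptide's frequency after selection divided by its frequency in the unselected input library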;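 also: frequency after pTyr selection over input frequency; kinase dosed for 20-30% of maximal phosphorylation in three min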
Observed property: phosphorylation enrichment

> print(dat)
                           sequence        assayed.system  reported.measurement
1            IQKWEYVPLGP [FAH_Y244]  Fes (UniProt P07332)                  1.01
2     KDFETYQPFQN [CTNND2_Y1157_YF]  Fes (UniProt P07332)                  1.02
3          DEGVNYFMSKG [FBXO8_Y156]  Fes (UniProt P07332)                 0.984
4           KYLENYLNRLL [PLD2_Y169]  Fes (UniProt P07332)                 0.989
5  MSRNLYSGDCF [DDR2_Y736_Y740C_YF]  Fes (UniProt P07332)                     1
